# System: HEK-293T
# Assay remarks: Multiplex assay against HEK293T
# Type: toxicity, cell-based
# Condition notes: human, 12 h, 1 µM, compound concentration 1 uM, replicate 1
Rule: Total Cell Count below 500 gives True. Equal to or above 500 gives False.

Here are 8 compounds together with their reported answers.
Compound: Cc1cc2c(cc1N1C(=O)c3cccc4c(CCCO)ccc(c34)C1=O)n(C)c(=O)n2C
Test target: HEK-293T
Group label: True
//
Compound: Cc1nc(Cc2cccc(C(F)(F)F)c2)sc1-c1ccc(C(N)=O)nc1 [TP-024n]
Test target: HEK-293T
Group label: True
//
Compound: Cc1cn(-c2cc(NC(=O)c3ccc4c(c3)CN(c3cncnc3)C[C@@H]4C)cc(C(F)(F)F)c2)cn1
Test target: HEK-293T
Group label: False
//
Compound: CCOc1cc(N2CCC(O)CC2)ccc1Nc1ncc2c(n1)N(C1CCCC1)CCC(=O)N2C
Test target: HEK-293T
Group label: False
//
Compound: COc1cc(N2CCC(N(C)C)CC2)ccc1Nc1ncc(Cl)c(Nc2ccccc2P(C)(C)=O)n1
Test target: HEK-293T
Group label: False
//
Compound: COc1cc2c(NC3CCN(C(C)C)CC3)nc(N3CCC(F)(F)CC3)nc2cc1OCCCN1CCCC1
Test target: HEK-293T
Group label: True
//
Compound: CCn1c(-c2nonc2N)nc2cnc(Oc3cccc(NC(=O)c4ccc(OCCN5CCOCC5)cc4)c3)cc21 [GSK-269962A]
Test target: HEK-293T
Group label: True
//
Compound: Cl.Cl.Nc1ncnc2c1c(-c1cccc(OCc3ccccc3)c1)cn2[C@H]1C[C@@H](CN2CCC2)C1
Test target: HEK-293T
Group label: True

Prompt: Quick check: Total Cell Count of Nc1nc2c(c(N3CCNCC3)n1)CCC1=C2[C@@H]2CCCC[C@@H]2O1 under 500?
Completion: True

Prompt: Is the reported Total Cell Count for c1ccc2oc(-c3csc(C4CCN(Cc5nc6ncccc6[nH]5)CC4)n3)cc2c1 strictly below 500?
Completion: False

Prompt: Answer whether the compound CNc1oc(-c2cccc3ccccc23)nc1C#N has Total Cell Count strictly less than 500
Completion: True

Prompt: Answer whether the compound CCCn1c(=O)c2[nH]c(C34CC5CC(CC3C5)C4)nc2n(CCC)c1=O has Total Cell Count strictly less than 500
Completion: True

Prompt: Is Total Cell Count strictly under 500 for the entry N#Cc1cnc(Nc2cc(NC[C@H]3CNCCO3)c(C(F)(F)F)cn2)cn1 ?
Completion: False

###

# System: U2OS
# Assay remarks: Multiplex assay against U2OS
# Assay type: toxicity, cell-based
# Condition notes: human, 48 h, 1 µM, compound concentration 1 uM, replicate 1
Assignment: determine reported Population Pyknosed Nuclei (%) for the given compounds.
Answers are plain numbers, in %.

These recorded examples may help you get a feel for the data.
Compound: Cl.Cl.Nc1ncnc2c1c(-c1cccc(OCc3ccccc3)c1)cn2[C@H]1C[C@@H](CN2CCC2)C1
Test target: U2OS
Population Pyknosed Nuclei (%): 16
--
Compound: CCn1c(-c2nonc2N)nc2cnc(Oc3cccc(NC(=O)c4ccc(OCCN5CCOCC5)cc4)c3)cc21 [GSK-269962A]
Test target: U2OS
Population Pyknosed Nuclei (%): 15

Would you mind listing Population Pyknosed Nuclei (%) for each of the following compounds?
1. COc1ccc(NS(=O)(=O)c2sc3ccc(Cl)cc3c2C)cc1N1CCNCC1.Cl
2. CCCn1c(=O)c2[nH]c(C34CC5CC(CC3C5)C4)nc2n(CCC)c1=O
3. Nc1ccc(C(=O)Nc2cccc(-c3nc(N4CCOCC4)c4oc5ncccc5c4n3)c2)cn1

Completion:
1. 9
2. 12
3. 21

###

Give Growth Rate for every item shown.
# System: Fibroblast
# Assay remarks: Incucyte cell viability with human fibroblast; also: filed as whole numbers so only -1 and 0 and 1 occur
# Type: toxicity, cell-based
# Condition notes: 12 h, 10 µM, compound concentration 10 uM, replicate number 1, timepoint 12 hours
Give bare numbers.

Example compounds with recorded Growth Rate:
Compound: C1=N/C2=N/c3ccc(OCCN4CCCC4)c(c3)COC/C=C\COCc3cccc(c3)C(=C1)N2
Growth Rate: 0

Compound: CN(C(=O)Cc1ccc(Cl)c(Cl)c1)C(CN1CCCC1)c1cccc(OCC(=O)O)c1.Cl (centres undefined)
Growth Rate: 0

Compound: Cc1nc(C#Cc2ccnc(Cl)c2)c(C)n1-c1ccc(OC(F)(F)F)cc1
Growth Rate: 0

Compound: Cc1cnc(-c2cc(Cl)ccc2F)cc1-n1c(=O)n(CC(N)=O)c2cnccc21 [TP-008]
Growth Rate: 0

Compound: CC1=C(C#N)C(c2ccc3c(c2)c(NC(=O)c2ccccc2C)nn3C)C(C#N)=C(C)N1 [BAY-974]
Growth Rate: 1

Compound: Cc1cccc(NC(=O)N[C@@H]2N=C(c3ccccc3)c3ccccc3N(C)C2=O)c1 [L-365260]
Growth Rate: 1

Would you mind listing Growth Rate for each of the following compounds?
1. COc1ccc(NS(=O)(=O)c2sc3ccc(Cl)cc3c2C)cc1N1CCNCC1.Cl
2. Nc1nc(NCc2ccccc2)nc(-c2cccc(CO)c2)n1 [ZINC32547799]
3. CNc1cc2[nH]c(=O)n(-c3ccc(NC(=O)NS(=O)(=O)c4ccc(Cl)s4)cc3)c(=O)c2cc1F [ELINOGREL]

Completion:
1. 0
2. 0
3. 1

Please supply Growth Rate for each of the following items, keeping them in order.
1. CC(=O)c1cc(-c2cc(C(=O)NC3CC3)ccc2C)c2ncccn12
2. O=C(NOC[C@H](O)CO)c1ccc(F)c(F)c1Nc1ccc(I)cc1F [MIRDAMETINIB]
3. CC(C)Oc1ccc(C(=O)N[C@H](CNC(=O)CN(C)C)Cc2ccc(-c3cn4cccc([C@H](C)O)c4n3)cc2)cc1Cl [GSK-923295A]
4. CCN1CCN(Cc2ccc(NC(=O)c3ccc(C)c(Oc4ccnc5[nH]ccc45)c3)cc2C(F)(F)F)CC1.Cl.Cl.Cl.O
5. Cc1cc(NC(=O)Nc2ccc(N(C)C)cc2)c2cc(F)cc(F)c2n1
6. Cl.Cl.NC1(c2ccc(-c3nc4ccn5c(=O)[nH]nc5c4cc3-c3ccccc3)cc2)CCC1
7. COc1cc2c(cc1-c1c(C)noc1C)ncc1[nH]c(=O)n([C@H](C)c3ccccn3)c12

Completion:
1: 0; 2: 1; 3: 0; 4: 0; 5: 1; 6: 0; 7: 1

Quick one: give me Growth Rate for each item below, same order please.
1. CO[C@@H]1COCC[C@@H]1N[C@@H]1CC[C@@](C(=O)N2CCc3ncc(C(F)(F)F)cc3C2)(C(C)C)C1 [MK-0812]
2. CCc1cc2c(c(CC)n1)CCC(=O)N2Cc1ccc(-c2ccccc2-c2nnn[nH]2)cc1.Cl
3. CCCCN(CCCC)C(=O)CN1C[C@@H](c2cc(OC)c3c(c2)OCO3)[C@H](C(=O)O)[C@H]1CC(C)(C)CCC.Cl
4. FC(F)c1nc2ccccc2n1-c1nc(N2CCOCC2)nc(N2CCOCC2)n1 [ZSTK-474]
5. CCC(=O)N[C@@H]1CC[C@H](C(=O)N(C)c2ccc(-c3nc4ccccc4o3)cc2)C1 [BI 99990]
6. Cl.Cl.Nc1ncnc2c1c(-c1cccc(OCc3ccccc3)c1)cn2[C@H]1C[C@@H](CN2CCC2)C1
7. Cc1nc2sccn2c(=O)c1CCN1CCC(=C(c2ccc(F)cc2)c2ccc(F)cc2)CC1 [RITANSERIN]

Completion:
[1, 0, 0, 0, 0, 0, 0]

Give Growth Rate for each of the items listed below.
1. CC(C)CC(=O)N1CCc2nc(-c3ccc(Br)cc3)nc(N(C)Cc3ccccc3)c2C1 [THPP-1-NC]
2. COc1ccccc1C(=O)Nc1cc2c(cc1N1CCCC1)n(C)c(=O)n2C

Completion:
0
1

###

Answer each item with its documented Growth Rate.
# Tested on: Fibroblast
# Assay remarks: Incucyte cell viability with human fibroblast; also: filed as whole numbers so only -1 and 0 and 1 occur
# Type: toxicity, cell-based
# Condition notes: 12 h, 10 µM, compound concentration 10 uM, replicate number 2, timepoint 12 hours
Give bare numbers.

Compound: CNc1cc2[nH]c(=O)n(-c3ccc(NC(=O)NS(=O)(=O)c4ccc(Cl)s4)cc3)c(=O)c2cc1F [ELINOGREL]
Test target: Fibroblast
Growth Rate: 0

Compound: CCCCc1nc(Cl)c(CO)n1Cc1ccc(-c2ccccc2-c2nn[nH]n2)cc1 [LOSARTAN]
Test target: Fibroblast
Growth Rate: 0

Compound: O=C(NC[C@H](O)CN1CCc2ccccc2C1)c1ccnc(NC2CCC2)c1
Test target: Fibroblast
Growth Rate: 1

Compound: CS(=O)(=O)c1cc(C2(NC(=O)c3cncc4c3cnn4-c3ccc(F)cc3)CC2)ccn1 [BI 639667]
Test target: Fibroblast
Growth Rate: 0

Compound: CCCCN(CCCC)C(=O)CN1C[C@@H](c2ccc3c(c2)OCO3)[C@H](C(=O)O)[C@H]1c1ccc(OC)cc1
Test target: Fibroblast
Growth Rate: 1

Compound: Nc1nc(NCCc2ccc(O)cc2)nc2nc(-c3ccco3)nn12 [ZM-241385]
Test target: Fibroblast
Growth Rate: 0

Compound: c1ccc2oc(-c3csc(C4CCN(Cc5nc6ncccc6[nH]5)CC4)n3)cc2c1
Test target: Fibroblast
Growth Rate: 1

Compound: O=C(O)c1ccc2cc(-c3ccc(O)c(C45CC6CC(CC(C6)C4)C5)c3)ccc2c1 [O-DEMETHYLATED ADAPALENE]
Test target: Fibroblast
Growth Rate: 1

Consider the following items and state reported Growth Rate for each.
1. CCCCN(CCCC)C(=O)CN1C[C@@H](c2cc(OC)c3c(c2)OCO3)[C@H](C(=O)O)[C@H]1CC(C)(C)CCC.Cl
2. CCOc1cc(N2CCC(O)CC2)ccc1Nc1ncc2c(n1)N(C1CCCC1)CCC(=O)N2C
3. Cn1cc(-c2ccc3occ(-c4ccccc4-c4ccccc4)c3n2)cn1
4. COc1ccccc1C(=O)Nc1cc2c(cc1N1CCCC1)n(C)c(=O)n2C
5. Cc1c(Oc2ccc(F)cc2)c(OC(C)C)nn1-c1ccc(C2CC2)cn1 [IPP/CNRS-A019]

Completion:
1. 1
2. 1
3. 1
4. 0
5. 1

Kindly give each listed record's Growth Rate.
1. Cc1cn(-c2cc(NC(=O)c3ccc4c(c3)CN(c3cncnc3)C[C@@H]4C)cc(C(F)(F)F)c2)cn1
2. Cc1cc(SCc2sc(-c3ccc(C(F)(F)F)c(F)c3)nc2C)ccc1OCC(=O)O
3. NS(=O)(=O)c1cc(NC(=O)C2(c3ccccc3Cl)CC2)ccc1Oc1cccc(Cl)c1 [BAY-207]

Completion:
1
0
1

Could I get Growth Rate for every one of these entries?
1. C[C@@H]1CCc2ncc(F)cc2[C@H]2CCCN2c2ccn3ncc(c3n2)C(=O)N1 [SELITRECTINIB]
2. CCNC(=O)c1cc2c(N3CCOC[C@@H]3C)ccnc2[nH]1

Completion:
1. 0
2. 0

Origin of the recorded values: ChEMBL document CHEMBL4689842
